Target: L. pneumophila FabT enoyl reductase (His-tagged FabT) (Legionella pneumophila)
Sequence (Q5ZUE4 1-268): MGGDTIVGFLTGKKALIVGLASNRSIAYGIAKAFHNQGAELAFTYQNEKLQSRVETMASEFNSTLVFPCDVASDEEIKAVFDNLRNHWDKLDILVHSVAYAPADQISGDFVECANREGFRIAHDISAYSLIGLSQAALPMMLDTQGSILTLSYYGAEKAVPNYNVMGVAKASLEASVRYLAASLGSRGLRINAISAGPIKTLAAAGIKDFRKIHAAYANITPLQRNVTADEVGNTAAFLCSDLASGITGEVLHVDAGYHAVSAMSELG
readoutName: Ki (µM)
Numeric answer only, unit µM assumed.

Provide the documented Ki with L. pneumophila FabT enoyl reductase (His-tagged FabT) (Legionella pneumophila) as the system for Cc1ccc(C)c(OCCCC(C)(C)C(=O)SCCNC(=O)CCNC(=O)[C@H](O)C(C)(C)COP(=O)(O)OP(=O)(O)OC[C@H]2O[C@@H](n3cnc4c(N)ncnc43)[C@H](O)[C@@H]2OP(=O)(O)O)c1 127
